experiment: Toxicokinetic study, 14-day repeated intraperitoneal administration in Sprague-Dawley rats; assay type: in vivo; details: female, Sprague-Dawley, rat, in vivo, ip, 5 mg/kg/day, AUClast
measured.property: AUC(0-t) (ng·h/mL)
Give just the number in ng·h/mL; leave the unit off.

// query Recorded AUC(0-t) for `CO[C@@H]1C[C@@H](C[C@H]2CC[C@H](C)[C@H]([C@@H](C)C(=O)O)O2)O[C@]2(O[C@](C)([C@H]3CC[C@@](C)([C@@H]4O[C@@H]([C@H]5O[C@@](O)(CO)[C@H](C)C[C@@H]5C)C[C@@H]4C)O3)C[C@H]2C)[C@@H]1C` , please?
// result 7260
